procedureDetails: Cmax in NOD/SCID mouse at 10 mg/kg, ip administered twice by LC-MS/MS method
Assay type: ADME, organism-based
Set-up: dose 10 mg/kg, route intraperitoneal
reportedConditions: in vivo
readoutLabel: Cmax

Note down Cmax recorded for Cc1nc2nc(Sc3ccccc3)cnc2cc1NC(=O)Nc1ccccc1
6.45 µM

====

procedureDetails: AUC (0 to 24 hrs) in NOD/SCID mouse at 10 mg/kg, ip administered twice by LC-MS/MS method
Format: ADME, organism-based
Parameters: time < 24 hr, dose 10 mg/kg, route intraperitoneal
reportedConditions: in vivo
readoutLabel: AUC(0-t) at 24 h (µM·h)
# value in µM·h; strip the unit string

Given Cc1nc2nc(Sc3ccccc3)cnc2cc1NC(=O)Nc1ccccc1 , respond with its AUC(0-t) at 24 h.
70.8
